Reference source: patent EP0133934A2

# Tested on: gastric ulceration
# Format: in vivo, rat
# Test conditions: os, 400 mg/kg
Measured property: ULCERA-TION INDEX
I'd appreciate a reply containing only the number, no unit.

Please review the entries below; each comes with its answer.
O=c1c2c3c(sc2nc2sc(-c4ccccc4)nn12)CCCC3 [HA 33]: 0
CSc1nn2c(=O)c3c4c(sc3nc2s1)CCCC4 [HA 34]: 0
CCc1nn2c(=O)c3c4c(sc3nc2s1)CCCC4 [HA 32]: 0

Now consider the entry below.
Exercise: Recorded ULCERA-TION INDEX for CCOc1ccccc1-c1nn2c(=O)c3c4c(sc3nc2s1)CCCC4 [HA 36] with gastric ulceration, please?
Key: 0

###

# Test system: acetic acid peritonitis
# Protocol summary: Anti-exudative activity: acetic acid peritonitis in the rat
# Assay type: in vivo
# Test conditions: Table 4, os, 10 mg/kg; controls 2.91 ± 0.12
Label criterion met when PERITONEAL EXUDATE ml ± E.S. is strictly below 1 mL; at or above that, label criterion not met.

Worked examples follow.
Cc1nn2c(=O)c3c4c(sc3nc2s1)CCC4: criterion not met
Cc1cccc(Nc2ccccc2C(=O)O)c1C: criterion not met
CCOc1ccccc1-c1nn2c(=O)c3c4c(sc3nc2s1)CCCC4: criterion not met

Exercise: Dear reviewer, please state whether `O=c1c2c3c(sc2nc2sc(-c4ccccc4)nn12)CCCC3` has PERITONEAL EXUDATE ml ± E.S. strictly beneath 1 mL.
Key: criterion not met

Exercise: And for `CSc1nn2c(=O)c3c4c(sc3nc2s1)CCCC4` ?
Key: criterion met

Exercise: And for `CCc1nn2c(=O)c3c4c(sc3nc2s1)CCCC4` ?
Key: criterion met
